Tested on: HT-29
Experiment: NCI tumour cell line growth inhibition, 48 h
Active and inactive are the calls of the source. No stated cut-off is given here; in the data, active = GI50 up to about 1.1 µM and inactive = higher.
Use one of these outcomes when replying: active, inactive

| MOLECULE | ASSIGNED CATEGORY |
| --- | --- |
| COc1cc(/C=C2\C[C@H]3[C@@H]4CC=C5C[C@@H](O)CC[C@]5(C)[C@H]4CC[C@]3(C)C2=O)cc(OC)c1OC | inactive |
| O=C(O)c1ccccc1Sc1ccccc1[N+](=O)[O-] | inactive |
| N#CCCN(CCC#N)c1ccc(C(Sc2ccccc2)C(NC(=O)c2cc([N+](=O)[O-])ccc2Cl)C(=O)Sc2ccccc2)cc1 (stereo not given) | inactive |
| CC1Cc2c(N)nc(NN)nc2NC1=O (stereo not given) | inactive |

Could you kindly confirm the outcome this assay logged for "O=C(O)c1ccccc1/N=C/c1ccc(N(CCCl)CCCl)cc1" ?
inactive

Please let me know the test result on file for "COc1ccc(-c2cc(-c3ccccc3)nc(N)c2-c2ccc3ccccc3c2)cc1" .
active

# fetch the recorded call for "Cc1ccc(/N=N/C(=N/c2ccccc2)c2ccc(N(CCC#N)CCC#N)cc2)cc1" here
inactive

What is the recorded call for this molecule in the test? "C#CCN1CCN(C(=S)N/N=C(\C)c2ccccn2)CC1"
active

Entry CC1(c2cccc3c2C2(O)C=CC4(CCC32)OCCO4)OCCO1 (stereo not given) : call = ?
inactive

// return assay outcome for CCOC(=O)C1N(S(=O)(=O)c2ccc(C)cc2)CCC12C(c1ccc(OC)c(OC)c1)=Nc1ccccc12 (stereo not given)
inactive

====

Tested on: SR
Experiment: NCI tumour cell line growth inhibition, 48 h
Active and inactive are the calls of the source. Rule as the data show it: active = GI50 up to about 1.1 µM and inactive = higher.
Items are presented alongside their recorded GI50.

Provide measured GI50 value, entry: "CC1=NN(c2nc(N)nc(CC#N)n2)C(C)(C)C1"
> 100 µM (inactive)

Provide measured GI50 value, entry: CC1=C(CO)C(=O)OC(C(C)C2CCC3C4CC5OC56C(O)C(N5CC5)=CC(=O)C6(C)C4CCC23C)C1 (stereo not given)
2.77 µM (inactive)

Entry "CC(=O)Oc1ccc(-c2c(OC(C)=O)c(OC(C)=O)c(-c3ccc(OC(C)=O)c(OC(C)=O)c3)c(OC(C)=O)c2OC(C)=O)cc1" needs its GI50 filled in; supply it.
23.9 µM (inactive)

Provide only the value of recorded GI50 for CCC1C(c2cc(OC)c(OC)c(OC)c2)c2cc3c(cc2OC1N1CCCC1)OCO3 (stereo not given)
1.17 µM (inactive)

Report GI50, nothing else, for this compound: "COc1cc2ccc(CC#N)cc2cc1OC"
> 100 µM (inactive)

====

System: 786-0
Experiment: NCI tumour cell line growth inhibition, 48 h
Calls of active or inactive are those of the source. No stated cut-off is given here; in the data, active = GI50 up to about 1.1 µM and inactive = higher.
OBSERVABLE: GI50

| MOLECULE | GI50 |
| --- | --- |
| CCN1CCN(c2nc3ccccc3nc2C(=O)c2ccc(OC)cc2)CC1 | 19.4 µM (inactive) |
| O=C(O)CNc1ccc2c(c1)Cc1cc(Br)ccc1-2 | 39.6 µM (inactive) |
| O=c1oc2ccc(Cl)cc2c2ccccc12 | 40.1 µM (inactive) |
| Cn1c(=O)c2[nH]c(C3CC(=O)CC(c4nc5c([nH]4)c(=O)n(C)c(=O)n5C)N3)nc2n(C)c1=O (stereo not given) | > 100 µM (inactive) |
| CCC1=NC(N/N=C/c2ccccc2O)=N/C1=C\c1ccccc1O | 6.76 µM (inactive) |

Enter recorded GI50 with 786-0 for CCCCCCCCCCCCN(CC(O)C(O)C(OC1OC(CO)C(O)C(O)C1O)C(O)CO)C(=O)CCCCCCCCCCC (stereo not given) here.
19 µM (inactive)

Answer briefly: GI50 recorded on 786-0 for N#Cc1ccccc1NC(=O)/C(=N\N)C(C(=O)c1ccncc1)C1OC(=O)c2ccccc21 (stereo not given)
> 100 µM (inactive)

Please indicate recorded GI50 of CCOC(=O)C1=C(C)NC(=O)NC1c1coc2cc(C)cc(C)c2c1=O (stereo not given) measured with 786-0.
67.9 µM (inactive)

# assay system 786-0: give GI50 of "O=C(O)Cc1cccc2c(=O)c3ccccc3oc12"
> 100 µM (inactive)

# assay system 786-0: give GI50 of "COc1ccc(-c2cc(-c3ccccc3)nc(N)c2-c2ccc3ccccc3c2)cc1"
1.73 µM (inactive)

====

System: HCT-116
Assay: NCI tumour cell line growth inhibition, 48 h
The source made the active and inactive calls. Rule as the data show it: active = GI50 up to about 1.1 µM and inactive = higher.
OBSERVABLE: GI50

| COMPOUND | OBSERVED VALUE |
| --- | --- |
| COc1ccc(C2NC(=O)Nc3c2c(=O)oc2c3ccc3ccccc32)cc1 (centres undefined) | 75.9 µM (inactive) |
| CC(C)CCC1(CCN)C(=O)NC(=O)NC1=O | > 100 µM (inactive) |
| N=C1OC(c2c[nH]c3ccc(OCc4ccccc4)cc23)C(O)=C1O (centres undefined) | > 100 µM (inactive) |
| CC(C)Cc1ccc(C(C)/C=C2\CCC(CN3CCCC3)C2=O)cc1 (centres undefined) | 4.13 µM (inactive) |
| COc1ccc(/C=C2\OC(=O)C(Cl)=C2c2ccc(OC)c(Cl)c2)cc1 | 39.1 µM (inactive) |
| COC1(OC)C[C@H](C)[C@@]23O[C@]24c2cc(O)c5c(c2N[C@H]3C#C/C=C\C#C[C@]14O)C(=O)c1ccccc1C5=O | 0.005 µM (active) |
| CCCCCc1cc2c(cc1O)CC[C@@H]1[C@@H]2CC[C@]2(C)[C@@H](O)CC[C@@H]12 | 17.3 µM (inactive) |
| Cc1ccc(C)c(NC(=O)CCc2n[nH]c(=S)o2)c1 | > 100 µM (inactive) |

Now let's try a different one.
Give me measured GI50, please, for this compound: "C#C[C@]1(O)CC[C@H]2[C@@H]3CCC4=C/C(=N/OC(=O)c5cccc6c(=O)c7ccccc7[nH]c56)CC[C@@H]4[C@H]3CC[C@@]21C"
48.5 µM (inactive)

====

Tested on: HCT-116
Assay: NCI tumour cell line growth inhibition, 48 h
Active and inactive are the calls of the source. Rule as the data show it: active = GI50 up to about 1.1 µM and inactive = higher.
Entries and their measured GI50 follow.

| MOLECULE | OBSERVABLE | OBSERVED VALUE |
| --- | --- | --- |
| COc1ccc(Nc2nc3c(N)cc(C(F)(F)F)cc3nc2-c2ccccc2)cc1OC | GI50 | 25.6 µM (inactive) |
| O=c1oc2ccc(Cl)cc2c2ccccc12 | GI50 | 76.2 µM (inactive) |
| CC1=C(CO)C(=O)OC(C(C)C2CCC3C4CC5OC56C(O)C(N5CC5)=CC(=O)C6(C)C4CCC23C)C1 (centres undefined) | GI50 | 3.02 µM (inactive) |

Note GI50 for the molecule shown: "O=C1C(Cl)=C(NCCc2ccc(O)cc2)C(=O)c2c(O)ccc(O)c21"
8.2 µM (inactive)

====

System: SK-OV-3
Assay: NCI tumour cell line growth inhibition, 48 h
Calls of active or inactive are those of the source. Cut-off read from the data, not from the text of the source: active = GI50 up to about 1.1 µM and inactive = higher.
Select the matching outcome among active, inactive

As a guide, the following entries are already answered.
| COMPOUND | ASSIGNED CATEGORY |
| --- | --- |
| C=CCC(CCC(C)=O)(C(=O)OCC)C(=O)OCC | inactive |
| CNC(=S)NC(=S)N(C)C | inactive |

Test call, this compound: "O=C(/C=C/c1ccc([N+](=O)[O-])o1)N1CCN(Cc2ccccc2)CC1"
inactive

Returns: the outcome recorded for "O=C(O)Cc1cccc2c(=O)c3ccccc3oc12" in this assay.
inactive

Please indicate how the test categorized COC1=C(C(=O)OC(C)(C)C)C23CCCCC2(C(C(=O)OC(C)(C)C)=C(OC)C3C(=O)OC(C)(C)C)C1C(=O)OC(C)(C)C (stereo not given) .
inactive

Dear colleague, could you share the recorded outcome for "Cc1cc(C)c2c(O)cc(-c3cccc(F)c3)nc2n1" when you have a moment?
active

Fill in: this test's call for "Cc1ccc2c(c1)nc1n2C(N)=Nc2ccccc2S1" is ___
inactive

====

System: K562
Experiment: NCI tumour cell line growth inhibition, 48 h
Calls of active or inactive are those of the source. No stated cut-off is given here; in the data, active = GI50 up to about 1.1 µM and inactive = higher.
Permitted responses: active, inactive

| COMPOUND | ASSIGNED CATEGORY |
| --- | --- |
| Cn1cc2ccccc2c1-c1nc(F)nc(OCC(=O)[C@H]2CCC3[C@@H]4CCC5=CC(=O)CC[C@]5(C)C4[C@@H](O)C[C@@]32C)n1 (stereo not given in full) | inactive |
| CCOC(=O)N1CCC2(CC1)C[C@](Sc1ccccc1)(C(C)=O)[C@H](C)O2 | inactive |
| Cc1cc(C)c2c(O)cc(-c3cccc(F)c3)nc2n1 | active |

Hi team, can someone confirm the assay call for "FC(F)(F)c1ccc2nc(Sc3ccc4ccccc4c3)cnc2c1" ?
inactive

====

System: SF-268
Assay: NCI tumour cell line growth inhibition, 48 h
The source made the active and inactive calls. Rule as the data show it: active = GI50 up to about 1.1 µM and inactive = higher.
OBSERVABLE: GI50

| COMPOUND | OBSERVABLE | OBSERVED VALUE |
| --- | --- | --- |
| NC1=CN(CCCO)C2=N/C(=C\c3ccccc3)C(=O)N12 | GI50 | > 100 µM (inactive) |
| Cc1cc2nc(O)c(C(C)C(=O)c3ccc(Cl)cc3)nc2cc1C (stereo unspecified) | GI50 | 47.5 µM (inactive) |
| O=C1/C(=C/c2cccc3ccccc23)Cc2ccccc21 | GI50 | 22.6 µM (inactive) |
| Nc1nnc(NC(=O)C2=NS(=O)(=O)c3cc(S(N)(=O)=O)c(Cl)cc3N2)[nH]1 | GI50 | > 100 µM (inactive) |
| COc1ccc2[nH]c3c4c(cc(-c5ccccc5)c3c2c1)C(=O)N(c1ccccc1)C4=O | GI50 | 23.1 µM (inactive) |

Next item in the queue.
Provide one value: measured GI50 of "Cc1ccc2c(c1)nc1n2C(N)=Nc2ccccc2S1"
48.1 µM (inactive)
